- tested.on: Drosophila OR13a (Drosophila melanogaster, UniProt Q9VXL0)
- Construct: expressed in transfected cells
- Sequence (Q9VXL0 whole entry, one chain of several): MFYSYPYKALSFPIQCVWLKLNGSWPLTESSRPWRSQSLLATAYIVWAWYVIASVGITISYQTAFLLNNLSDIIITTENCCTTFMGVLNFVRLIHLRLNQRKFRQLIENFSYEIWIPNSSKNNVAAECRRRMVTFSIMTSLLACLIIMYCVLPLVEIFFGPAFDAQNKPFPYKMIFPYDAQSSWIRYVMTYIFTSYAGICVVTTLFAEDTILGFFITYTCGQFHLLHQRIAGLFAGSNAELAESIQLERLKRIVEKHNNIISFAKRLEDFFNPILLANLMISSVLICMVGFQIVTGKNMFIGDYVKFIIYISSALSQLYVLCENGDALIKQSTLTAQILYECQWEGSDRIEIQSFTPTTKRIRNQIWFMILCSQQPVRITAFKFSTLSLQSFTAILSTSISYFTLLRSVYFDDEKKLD
- protocol.description: Calcium ion fluorescence (GCaMP6) assay, OR13a stable HEK293 cell line
- Assay type: cell-based
- experimental.context: ligand concentration 1 (unit not given); threshold 0.05, below shown as 0
Can you tell me DF norm AVERAGE OR13a for the items I'm about to list?
# respond with the number and nothing more

Prompt: Query for Drosophila OR13a (Drosophila melanogaster, UniProt Q9VXL0): what DF norm AVERAGE OR13a does the record show for OCCc1ccccc1 ?
Completion: 0.06578

Prompt: Missing value: DF norm AVERAGE OR13a, Drosophila OR13a (Drosophila melanogaster, UniProt Q9VXL0), entry CCCCCCCCCC=O . Fill in?
Completion: 0

Prompt: Give the reported DF norm AVERAGE OR13a for CC(=O)OCCC(C)C [isopentyl acetate] (system: Drosophila OR13a (Drosophila melanogaster, UniProt Q9VXL0)).
Completion: 0

Prompt: DF norm AVERAGE OR13a of CCOC(=O)CC [ethyl propionate] on Drosophila OR13a (Drosophila melanogaster, UniProt Q9VXL0)?
Completion: 0

Prompt: Requested read-out DF norm AVERAGE OR13a, target or system Drosophila OR13a (Drosophila melanogaster, UniProt Q9VXL0), entry CC1=CC[C@@H](C(C)(C)O)CC1
Completion: 0

* * *

- tested.on: Drosophila OR71a (Drosophila melanogaster)
- Construct: expressed in transfected cells
- Sequence (Q9VUK5 whole entry): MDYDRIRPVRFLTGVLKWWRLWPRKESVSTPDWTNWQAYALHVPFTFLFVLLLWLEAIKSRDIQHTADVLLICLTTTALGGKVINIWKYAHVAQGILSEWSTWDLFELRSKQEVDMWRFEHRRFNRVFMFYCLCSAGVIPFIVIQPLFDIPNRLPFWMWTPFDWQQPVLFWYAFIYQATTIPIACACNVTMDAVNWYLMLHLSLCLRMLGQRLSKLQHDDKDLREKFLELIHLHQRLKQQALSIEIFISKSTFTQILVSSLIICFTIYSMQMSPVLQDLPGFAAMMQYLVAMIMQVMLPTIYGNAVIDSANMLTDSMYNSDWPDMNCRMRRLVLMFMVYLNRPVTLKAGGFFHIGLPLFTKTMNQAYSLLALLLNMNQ
- Sequence (Q9VNB5 whole entry partner): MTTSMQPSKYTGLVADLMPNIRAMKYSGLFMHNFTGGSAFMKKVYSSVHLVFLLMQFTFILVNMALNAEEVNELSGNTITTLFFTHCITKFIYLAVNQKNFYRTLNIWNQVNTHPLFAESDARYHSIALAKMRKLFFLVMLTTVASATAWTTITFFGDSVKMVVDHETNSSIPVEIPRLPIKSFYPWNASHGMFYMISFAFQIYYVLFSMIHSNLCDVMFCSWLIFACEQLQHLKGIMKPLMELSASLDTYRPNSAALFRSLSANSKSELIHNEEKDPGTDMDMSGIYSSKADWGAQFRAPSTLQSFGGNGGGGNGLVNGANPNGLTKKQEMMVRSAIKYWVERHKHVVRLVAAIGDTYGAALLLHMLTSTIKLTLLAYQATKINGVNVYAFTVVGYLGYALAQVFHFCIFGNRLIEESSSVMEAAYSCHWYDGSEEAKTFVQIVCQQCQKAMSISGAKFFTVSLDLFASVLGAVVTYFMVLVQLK
- protocol.description: Calcium ion fluorescence (GCaMP6) assay, OR71a stable HEK293 cell line
- Format: cell-based
- experimental.context: OR71a cell line; cc. 1 µM; VUAA1-normalized response, mean of biological replicates
readout.type: Average response

Prompt: # get_value(readout='Average response', item= CCCCC(C)=O )
Completion: 0.08

Prompt: Item Cc1ccc(O)cc1 has what recorded Average response?
Completion: 0.00

Prompt: Need Average response of C=Cc1ccccc1 , thanks.
Completion: 0.027

Prompt: If you can, please state the reported Average response value of COC(=O)c1ccccc1 [methyl benzoate] .
Completion: 0.00

Prompt: Quick one: Average response for Cc1ccc(C(C)C)cc1 ?
Completion: 0.00

Prompt: // lookup Average response for OCCc1ccccc1
Completion: 0.09

Prompt: Any idea what Average response was measured for CC/C=C/CCO ?
Completion: 0.00

Prompt: Quick one: Average response of CCCCOC(=O)CC [butyl propanoate] ?
Completion: 0.00

Prompt: Requested read-out: Average response. Entry: CCCCCOC(C)=O [pentyl acetate]
Completion: 0.00

Prompt: Dear colleague, I am looking for the recorded Average response of the following compound: CCc1ccccc1
Completion: 0.023

Prompt: Quick one: Average response of C=C1[C@H]2CC[C@@H]3[C@H]2C(C)(C)CCC[C@]13C [(+)-longifolene] ?
Completion: 0.00

Prompt: Which Average response value is on record for C=C1CCC2CC1C2(C)C (stereo not drawn) ?
Completion: 0.0344

Prompt: Please give the measured Average response for this compound: Cc1cccc(O)c1
Completion: 0.03

Prompt: Give its Average response value. Item: Cc1ccccc1
Completion: 0.00

Prompt: For CCCCOC(C)=O [butyl acetate] , what is its reported Average response?
Completion: 0.00

Prompt: Given the compound C=C(C)[C@H]1CC=C(C)CC1 [(R)-(+)-limonene] , what is its reported Average response?
Completion: 0.0368

Prompt: Quick one: Average response for CC(C)=CCC/C(C)=C/CC/C(C)=C/CO ?
Completion: 0.00

Prompt: Tell me the measured Average response of C=C1CC/C=C(\C)CC[C@@H]2[C@@H]1CC2(C)C [(-)-trans-caryophyllene] , please.
Completion: 0.0273

Prompt: Item under review: CC/C=C\CCOC(C)=O [z3-hexenyl acetate] . Reported Average response?
Completion: 0.00

Prompt: Requested field: Average response. Item: CC1=CCC2CC1C2(C)C (stereo not drawn)
Completion: 0.0368

Prompt: Requested read-out: Average response. Entry: CCCCCCCCCC=O
Completion: 0.00

Prompt: Give its Average response value. Item: C=C1CCC2(C(C)C)CC12 (stereo not drawn)
Completion: 0.00

Prompt: Quick check: Average response of Cc1ccc(C)cc1 ?
Completion: 0.00

Prompt: Reported Average response for CC/C=C\CCO : what is it?
Completion: 0.00

Prompt: # input compound: C=CCc1ccc(O)c(OC)c1 ; wanted: its Average response
Completion: 0.00

Prompt: What does the record list as Average response for CCCCCCCCC=O ?
Completion: 0.00

Prompt: Any idea what its Average response is? The compound is CCCCCC(=O)OCC [ethyl hexanoate]
Completion: 0.0156

Prompt: # input compound: CCCCCCCCCCCCCC ; wanted: its Average response
Completion: 0.0218

Prompt: Recorded Average response of CC1=CCC2C(C1)C2(C)C (stereo not drawn) , please.
Completion: 0.00

Prompt: Consider the compound shown here: CCCCCCCO What is its recorded Average response?
Completion: 0.00

Prompt: Look up Average response: COC(=O)c1ccccc1O [methyl salicylate]
Completion: 0.00

Prompt: For the compound shown here, C=CC(O)C/C=C\CC (stereo not drawn) , give the reported Average response.
Completion: 0.00

Prompt: What value of Average response has been reported for the following compound? CCCCCCCCCCC
Completion: 0.00

Prompt: Would you mind telling me what Average response value was observed for COc1cccc(OC)c1 ?
Completion: 0.00

Prompt: Could you tell me which Average response is on file for CCCCCC(C)=O ?
Completion: 0.08

Prompt: Any idea what Average response was measured for CC1=CC[C@@H](C(C)(C)O)CC1 ?
Completion: 0.00

* * *

- tested.on: Drosophila OR98a (Drosophila melanogaster)
- Construct: expressed in transfected cells
- Sequence (Q9VAZ3 whole entry, one chain of several): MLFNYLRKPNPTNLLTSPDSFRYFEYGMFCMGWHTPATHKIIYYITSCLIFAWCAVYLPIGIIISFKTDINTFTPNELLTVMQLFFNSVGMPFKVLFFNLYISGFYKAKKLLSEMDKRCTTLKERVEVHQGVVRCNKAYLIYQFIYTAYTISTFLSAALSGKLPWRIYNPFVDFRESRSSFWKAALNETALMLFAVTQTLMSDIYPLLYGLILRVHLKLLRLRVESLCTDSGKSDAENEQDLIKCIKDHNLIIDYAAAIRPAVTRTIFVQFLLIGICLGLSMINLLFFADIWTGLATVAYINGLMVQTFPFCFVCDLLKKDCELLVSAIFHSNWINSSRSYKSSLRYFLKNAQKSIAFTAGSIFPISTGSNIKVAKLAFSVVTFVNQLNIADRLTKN
- protocol.description: Calcium ion fluorescence (GCaMP6) assay, OR98a stable HEK293 cell line;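 note: ligand concentrations in µM final VOC concentration in well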
- Format: cell-based
- experimental.context: HEK293, read-out: OR98a response (VUAA1-normalized response)
Assignment: determine reported activation at 10 µM for the given compounds.
Your answer should be a plain number; it is taken to be in %.

Prompt: Recorded activation at 10 µM for O=Cc1ccccc1 with Drosophila OR98a (Drosophila melanogaster), please?
Completion: 0

Prompt: API: value(readout= activation at 10 µM, system= Drosophila OR98a (Drosophila melanogaster), query= COc1cccc(OC)c1 )
Completion: 0

Prompt: # value lookup — system Drosophila OR98a (Drosophila melanogaster), readout activation at 10 µM, item Cc1ccc(C)c(C)c1
Completion: 13

Prompt: Lookup: activation at 10 µM / Drosophila OR98a (Drosophila melanogaster) / CCOC(=O)c1ccccc1 [ethyl benzoate]
Completion: 0

Prompt: Short answer please: activation at 10 µM, Drosophila OR98a (Drosophila melanogaster), entry CCCCCC(=O)OCC [ethyl hexanoate]
Completion: 12

Prompt: Query for Drosophila OR98a (Drosophila melanogaster): what activation at 10 µM does the record show for CC(=O)OCCC(C)C [isopentyl acetate] ?
Completion: 0

Prompt: Provide the documented activation at 10 µM with Drosophila OR98a (Drosophila melanogaster) as the system for CCc1ccccc1
Completion: 12

Prompt: Param readout = activation at 10 µM; param system = Drosophila OR98a (Drosophila melanogaster); param query = CCCCCC(C)O (stereo not shown) ; response: value
Completion: 0

Prompt: // fetch Drosophila OR98a (Drosophila melanogaster) activation at 10 µM for C=C1CC/C=C(\C)CC[C@@H]2[C@@H]1CC2(C)C [(-)-trans-caryophyllene]
Completion: 6

Prompt: # value lookup — system Drosophila OR98a (Drosophila melanogaster), readout activation at 10 µM, item CC(=O)OCC(C)C [isobutyl acetate]
Completion: 0

Prompt: Checklist item: activation at 10 µM tested on Drosophila OR98a (Drosophila melanogaster), entry CCCC(=O)OCC [ethyl butyrate] , value?
Completion: 0

Prompt: Lookup: activation at 10 µM / Drosophila OR98a (Drosophila melanogaster) / CCCC(O)CC (stereo not shown)
Completion: 19

Prompt: What measured activation at 10 µM is associated with Cc1ccc(O)cc1 on Drosophila OR98a (Drosophila melanogaster)?
Completion: 0

Prompt: # value lookup — system Drosophila OR98a (Drosophila melanogaster), readout activation at 10 µM, item CCCCC(C)=O
Completion: 0

Prompt: GET /values?readout=activation at 10 µM&system=Drosophila OR98a (Drosophila melanogaster)&item= C=C1CC[C@H]2O[C@]2(C)CC[C@@H]2[C@@H]1CC2(C)C [(-)-caryophyllene oxide]
Completion: 0

Prompt: Give activation at 10 µM (Drosophila OR98a (Drosophila melanogaster)) of the following compound: C=CC(O)C/C=C\CC (stereo not shown)
Completion: 8

* * *

- tested.on: Drosophila OR85b (Drosophila melanogaster, UniProt Q9VHQ7)
- Construct: expressed in transfected cells
- Sequence (Q9VHQ7 whole entry, one chain of several): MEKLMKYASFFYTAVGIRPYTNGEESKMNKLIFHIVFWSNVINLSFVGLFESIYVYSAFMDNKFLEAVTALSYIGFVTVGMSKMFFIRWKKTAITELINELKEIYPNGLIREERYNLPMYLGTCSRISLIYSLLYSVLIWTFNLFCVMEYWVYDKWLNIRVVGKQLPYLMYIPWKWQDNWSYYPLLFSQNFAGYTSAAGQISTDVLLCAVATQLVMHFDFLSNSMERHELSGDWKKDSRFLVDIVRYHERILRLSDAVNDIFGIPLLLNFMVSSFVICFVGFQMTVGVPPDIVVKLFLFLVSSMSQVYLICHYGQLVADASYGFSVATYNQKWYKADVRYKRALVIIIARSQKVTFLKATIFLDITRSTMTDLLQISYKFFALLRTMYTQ
- protocol.description: Calcium ion fluorescence (GCaMP6) assay, OR85b stable HEK293 cell line
- Format: cell-based
- experimental.context: ligand concentration 100 (unit not given); threshold 0.05, below shown as 0
readout.type: DF norm AVERAGE OR85b
Please reply with the number alone, leaving off any unit.

Prompt: Would you kindly share the measured DF norm AVERAGE OR85b for CCCCOC(C)=O [butyl acetate] ?
Completion: 0

Prompt: // DF norm AVERAGE OR85b lookup, key: OCCc1ccccc1 [phenethyl alcohol]
Completion: 0

Prompt: Query: DF norm AVERAGE OR85b; subject: CCCCCCCCC=O [nonanal]
Completion: 0

Prompt: Param item = C=C(C)[C@H]1CC=C(C)CC1 [limonene] ; retrieve measured DF norm AVERAGE OR85b.
Completion: 0.06443

Prompt: Would you mind telling me what DF norm AVERAGE OR85b value was observed for CCCCCCCCCC=O [decanal] ?
Completion: 0

Prompt: I'd like to know its DF norm AVERAGE OR85b. The compound in question is O=Cc1ccccc1 [benzaldehyde]
Completion: 0

Prompt: Look up DF norm AVERAGE OR85b: CCCCCC(=O)OCC [ethyl hexanoate]
Completion: 0

Prompt: What value of measured DF norm AVERAGE OR85b is listed for CC(=O)c1ccccc1 [acetophenone] ?
Completion: 0

Prompt: Need DF norm AVERAGE OR85b, item CC(=O)OCC(C)C [isobutyl acetate]
Completion: 0

Prompt: Report DF norm AVERAGE OR85b for CC1=CC[C@@H](C(C)(C)O)CC1 [alpha-terpineol] please.
Completion: 0

Prompt: # lookup: DF norm AVERAGE OR85b of CC1=CCC2CC1C2(C)C (stereo not drawn) [alpha-pinene]
Completion: 0

Prompt: Please report the recorded DF norm AVERAGE OR85b for CCc1ccccc1 [ethylbenzene] .
Completion: 0

Prompt: // DF norm AVERAGE OR85b lookup, key: CCOC(=O)CC [ethyl propionate]
Completion: 0.09327

Prompt: For the compound shown here, CC(C)=CCC/C(C)=C/CC/C(C)=C/CO [e,e-farnesol] , give the reported DF norm AVERAGE OR85b.
Completion: 0

Prompt: Could you tell me which DF norm AVERAGE OR85b is on file for CCOC(=O)c1ccccc1 [ethyl benzoate] ?
Completion: 0

Prompt: Tell me the measured DF norm AVERAGE OR85b of CCCOC(C)=O [propyl acetate] , please.
Completion: 0

Prompt: Look at this compound and give its reported DF norm AVERAGE OR85b. C=CCc1ccc(O)c(OC)c1 [eugenol]
Completion: 0.09022

Prompt: What value of measured DF norm AVERAGE OR85b is listed for C=C1CCC2CC1C2(C)C (stereo not drawn) [beta-pinene] ?
Completion: 0.0913

Prompt: Report DF norm AVERAGE OR85b for CCCC(=O)OCC [ethyl butyrate] please.
Completion: 0

Prompt: Given the entry C=C1CCC2(C(C)C)CC12 (centres unmarked) [sabinene] , report its measured DF norm AVERAGE OR85b.
Completion: 0.08701

Prompt: Entry under review: COC(=O)c1ccccc1 [methyl benzoate] . Reported DF norm AVERAGE OR85b?
Completion: 0

Prompt: Query (compound): Cc1ccccc1C [o-xylene] ; field requested: DF norm AVERAGE OR85b
Completion: 0.08274

Prompt: Give its DF norm AVERAGE OR85b value. Item: CC(=O)OCCC(C)C [isopentyl acetate]
Completion: 0
